tested on: human airway epithelial cells (HAECs); test: High-throughput sequencing (HTS) of miRNAs at four stages of differentiation of HAECs; settings: stage D0; Table VI
# if measured Level of intensity of expression in log2 measured by high-throughput sequencing, D0 < 8 log2: Satisfied  # else: Not satisfied

is_below(Level of intensity of expression in log2 measured by high-throughput sequencing, D0, 8 log2) for hsa-miR-30b: human miRNA, SEQ ID No. 33 (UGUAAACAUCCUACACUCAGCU; expressed or natural sequence; listed as Homo sapiens) ?
Not satisfied

In plain terms, does hsa-miR-26a: human miRNA, SEQ ID No. 28 (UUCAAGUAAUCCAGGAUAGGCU; expressed or natural sequence; listed as Homo sapiens) come in under 8 log2 for Level of intensity of expression in log2 measured by high-throughput sequencing, D0?
Satisfied

Hi there! Is Level of intensity of expression in log2 measured by high-throughput sequencing, D0 for hsa-miR-125a-5p: human miRNA, SEQ ID No. 3 (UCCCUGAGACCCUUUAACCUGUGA; expressed or natural sequence; listed as Homo sapiens) below 8 log2, do you know?
Not satisfied

is_below(Level of intensity of expression in log2 measured by high-throughput sequencing, D0, 8 log2) for hsa-miR-140-3p: human miRNA, SEQ ID No. 5 (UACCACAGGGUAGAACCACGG; expressed or natural sequence; listed as Homo sapiens) ?
Not satisfied

A record lists hsa-miR-151-5p: human miRNA, SEQ ID No. 8 (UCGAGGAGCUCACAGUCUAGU; expressed or natural sequence; listed as Homo sapiens) . Is its Level of intensity of expression in log2 measured by high-throughput sequencing, D0 below 8 log2?
Not satisfied

----------
system: human airway epithelial cells (HAECs); assay: High-throughput sequencing (HTS) of miRNAs at four stages of differentiation of HAECs; details: HTS, ALI-WD
Give measured Abundance (%), WD for each item. Keep answers brief.
Numeric answer only, unit % assumed.

Record hsa-miR-140-3p: human miRNA, SEQ ID No. 5 (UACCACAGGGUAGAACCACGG; expressed or natural sequence; listed as Homo sapiens) : what is its Abundance (%), WD with human airway epithelial cells (HAECs)?
1.44

So what Abundance (%), WD did hsa-miR-193b: human miRNA, SEQ ID No. 14 (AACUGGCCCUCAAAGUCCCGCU; expressed or natural sequence; listed as Homo sapiens) get with human airway epithelial cells (HAECs)?
0.52

Value wanted: Abundance (%), WD (human airway epithelial cells (HAECs)) of entry hsa-miR-1975: human miRNA, SEQ ID No. 15 (CCCCCACAACCGCGCUUGACUAGCU; expressed or natural sequence; listed as Homo sapiens)
2.67

# returns recorded Abundance (%), WD (system: human airway epithelial cells (HAECs)) for hsa-miR-191: human miRNA, SEQ ID No. 13 (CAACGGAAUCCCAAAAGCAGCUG; expressed or natural sequence; listed as Homo sapiens)
18.69

Record lookup: for human airway epithelial cells (HAECs), what Abundance (%), WD belongs to hsa-miR-574-3p: human miRNA, SEQ ID No. 48 (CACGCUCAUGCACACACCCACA; expressed or natural sequence; listed as Homo sapiens) ?
3.90

----------
test system: human airway epithelial cells (HAECs); test: Agilent miRNA chips, miRNA expression at four stages of differentiation of HAECs; settings: stage WD; Table VI
Assign class by Level of intensity of expression in log2 measured with the Agilent chips, WD: not lower than 10 log2 means t; lower than 10 log2 means f.

Check if Level of intensity of expression in log2 measured with the Agilent chips, WD >= 10 log2 (inclusive). Item: hsa-miR-106b: human miRNA, SEQ ID No. 2 (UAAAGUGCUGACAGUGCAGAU; expressed or natural sequence; listed as Homo sapiens)
f

Determine whether this substance has Level of intensity of expression in log2 measured with the Agilent chips, WD no lower than 10 log2: hsa-miR-27b: human miRNA, SEQ ID No. 30 (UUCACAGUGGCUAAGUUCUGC; expressed or natural sequence; listed as Homo sapiens)
t

Reported Level of intensity of expression in log2 measured with the Agilent chips, WD reaches at least 10 log2 for hsa-miR-100: human miRNA, SEQ ID No. 1 (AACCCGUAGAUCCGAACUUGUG; expressed or natural sequence; listed as Homo sapiens) ?
f

Can hsa-miR-193b: human miRNA, SEQ ID No. 14 (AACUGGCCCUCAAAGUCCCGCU; expressed or natural sequence; listed as Homo sapiens) be said to have Level of intensity of expression in log2 measured with the Agilent chips, WD at or above 10 log2?
f

State whether the measured Level of intensity of expression in log2 measured with the Agilent chips, WD reaches 10 log2, counting equality as reaching it, for hsa-miR-181a: human miRNA, SEQ ID No. 12 (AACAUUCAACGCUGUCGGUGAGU; expressed or natural sequence; listed as Homo sapiens)
f

Given hsa-miR-203: human miRNA, SEQ ID No. 19 (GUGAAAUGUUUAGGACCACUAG; expressed or natural sequence; listed as Homo sapiens) , state whether its Level of intensity of expression in log2 measured with the Agilent chips, WD is at least 10 log2.
t

Decide: Level of intensity of expression in log2 measured with the Agilent chips, WD of hsa-miR-939: human miRNA, SEQ ID No. 50 (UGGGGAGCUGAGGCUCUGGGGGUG; expressed or natural sequence; listed as Homo sapiens) >= 10 log2?
f

Dear colleague, could you confirm whether hsa-miR-34a: human miRNA, SEQ ID No. 38 (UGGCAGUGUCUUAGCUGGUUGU; expressed or natural sequence; listed as Homo sapiens) has Level of intensity of expression in log2 measured with the Agilent chips, WD at or above 10 log2?
t

Would you say hsa-let-7g: human miRNA, SEQ ID No. 162 (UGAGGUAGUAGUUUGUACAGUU; expressed or natural sequence; listed as Homo sapiens) shows Level of intensity of expression in log2 measured with the Agilent chips, WD at minimum 10 log2?
t

Could you please find out whether hsa-miR-22: human miRNA, SEQ ID No. 23 (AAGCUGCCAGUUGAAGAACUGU; expressed or natural sequence; listed as Homo sapiens) has Level of intensity of expression in log2 measured with the Agilent chips, WD that meets 10 log2 or exceeds it?
t

Please indicate if the recorded Level of intensity of expression in log2 measured with the Agilent chips, WD for hsa-miR-378: human miRNA, SEQ ID No. 43 (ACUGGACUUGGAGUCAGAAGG; expressed or natural sequence; listed as Homo sapiens) meets or exceeds 10 log2.
f

For this substance, is measured Level of intensity of expression in log2 measured with the Agilent chips, WD 10 log2 or higher? hsa-miR-30e: human miRNA, SEQ ID No. 36 (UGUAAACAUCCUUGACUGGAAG; expressed or natural sequence; listed as Homo sapiens)
f

Has hsa-miR-224: human miRNA, SEQ ID No. 24 (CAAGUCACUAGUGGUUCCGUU; expressed or natural sequence; listed as Homo sapiens) a recorded Level of intensity of expression in log2 measured with the Agilent chips, WD greater than or equal to 10 log2?
f

Hi, just wondering whether hsa-miR-374a: human miRNA, SEQ ID No. 42 (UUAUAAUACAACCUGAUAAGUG; expressed or natural sequence; listed as Homo sapiens) shows Level of intensity of expression in log2 measured with the Agilent chips, WD of 10 log2 or higher.
f

Reported Level of intensity of expression in log2 measured with the Agilent chips, WD at or above 10 log2? hsa-miR-30d: human miRNA, SEQ ID No. 35 (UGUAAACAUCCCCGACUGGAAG; expressed or natural sequence; listed as Homo sapiens)
f

Check if Level of intensity of expression in log2 measured with the Agilent chips, WD >= 10 log2 (inclusive). Item: hsa-miR-449a: human miRNA, SEQ ID No. 46 (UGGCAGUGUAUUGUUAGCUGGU; expressed or natural sequence; listed as Homo sapiens)
t

State whether the measured Level of intensity of expression in log2 measured with the Agilent chips, WD reaches 10 log2, counting equality as reaching it, for hsa-miR-200b: human miRNA, SEQ ID No. 17 (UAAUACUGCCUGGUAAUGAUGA; expressed or natural sequence; listed as Homo sapiens)
t

State whether the measured Level of intensity of expression in log2 measured with the Agilent chips, WD reaches 10 log2, counting equality as reaching it, for hsa-miR-141: human miRNA, SEQ ID No. 6 (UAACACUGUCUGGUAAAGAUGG; expressed or natural sequence; listed as Homo sapiens)
t

----------
Give Intensity of the level of expression in log2 in basal cells (323(+)) for every item shown.
tested on: basal cells and pyramidal cells of the airway epithelium; assay: miRNA expression in sorted basal cells versus pyramidal cells (ciliated + secretory), HTS and Agilent chips; set-up: species or system human; details: basal cells
Dear colleague, please return just the value in log2, with no unit written.

# get_value(readout='Intensity of the level of expression in log2 in basal cells (323(+))', item= hsa-miR-23b: human miRNA, SEQ ID No. 26 (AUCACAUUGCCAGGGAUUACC; expressed or natural sequence; listed as Homo sapiens) )
9.41

Form field: reported Intensity of the level of expression in log2 in basal cells (323(+)) of hsa-miR-193b: human miRNA, SEQ ID No. 14 (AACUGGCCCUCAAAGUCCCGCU; expressed or natural sequence; listed as Homo sapiens)
3.90

# input substance: hsa-let-7g: human miRNA, SEQ ID No. 162 (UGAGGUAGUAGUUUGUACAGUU; expressed or natural sequence; listed as Homo sapiens) ; wanted: its Intensity of the level of expression in log2 in basal cells (323(+))
8.37
